All values here come from the MegaScale stability set (Tsuboyama et al. 2023).

B1: HHH_rd2_0155 (parent)
chain: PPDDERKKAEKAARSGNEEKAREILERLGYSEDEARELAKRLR

Variants of: B1
experimentSummary: folding stability dG (cDNA display proteolysis); higher = more stable
setupConditions: PBS, room temperature
Mark true for reported folding stability dG of 2 kcal/mol or greater; mark false for anything smaller.

>>> classname("G29K")
"false"
>>> classname("E10Q")
"false"
>>> classname("L25T")
"false"
>>> classname("S31M")
"false"
>>> classname("L42T")
"false"
>>> classname("I24T")
"false"
>>> classname("A9Y")
"false"
>>> classname("A12M")
"true"
>>> classname("K8R")
"true"
>>> classname("E34Y")
"false"
>>> classname("K8Q")
"true"
>>> classname("R36D")
"false"
>>> classname("D33R")
"false"
>>> classname("L42S")
"false"
>>> classname("R22E")
"false"
>>> classname("K11C")
"true"
>>> classname("E37C")
"true"
>>> classname("N17E")
"false"
>>> classname("E23N")
"false"
>>> classname("E5V")
"false"
>>> classname("P1Q")
"true"
>>> classname("E26W")
"false"
>>> classname("L28W")
"false"
>>> classname("E5G")
"false"
>>> classname("R22V")
"true"
>>> classname("L38Y")
"false"
>>> classname("K11L")
"true"
>>> classname("E26H")
"false"
>>> classname("L25M")
"false"
>>> classname("I24G")
"false"
>>> classname("E23P")
"false"
>>> classname("A12P")
"false"
>>> classname("A35S")
"false"
>>> classname("E34S")
"false"
>>> classname("G16F")
"false"
>>> classname("D33F")
"false"
>>> classname("K7M")
"true"
>>> classname("E37W")
"true"
>>> classname("G16V")
"false"
>>> classname("L38Q")
"false"
>>> classname("R43E")
"false"
>>> classname("P1V")
"true"
>>> classname("G29R")
"false"
>>> classname("S31Y")
"false"
>>> classname("L38E")
"false"
>>> classname("K40V")
"false"
>>> classname("A12G")
"false"
>>> classname("L28G")
"false"
>>> classname("L25E")
"false"
>>> classname("K7T")
"true"
>>> classname("E5S")
"false"
>>> classname("D3W")
"true"
>>> classname("S31A")
"false"
>>> classname("E18F")
"true"
>>> classname("R14W")
"false"
>>> classname("R22P")
"false"
>>> classname("A13D")
"false"
>>> classname("K8M")
"true"
>>> classname("A9T")
"false"
>>> classname("E26M")
"true"
>>> classname("Y30D")
"false"
>>> classname("A21F")
"false"
>>> classname("G29Q")
"false"
>>> classname("K7L")
"true"
>>> classname("Y30F")
"false"
>>> classname("E26N")
"false"
>>> classname("E5W")
"true"
>>> classname("E5R")
"false"
>>> classname("R43T")
"false"
>>> classname("E37N")
"false"
>>> classname("D4A")
"true"
>>> classname("K11T")
"true"
>>> classname("R36S")
"false"
>>> classname("N17V")
"false"
>>> classname("K40I")
"false"
>>> classname("N17R")
"false"
>>> classname("A13T")
"false"
>>> classname("P2W")
"true"
>>> classname("E19R")
"true"
